Cited source: PubChem BioAssay AID651640

test: inhibitors of DENV2 cytopathic effect, primary screen, cell-based, plate reader, single concentration (AID 651640); conditions: DENV2-infected cells, cytopathic effect rescue, at 9.99 µM, active compounds read high;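 further: 0% = median of neutral control wells and 100% = median of positive control wells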
Hit rate of the full screen: of about 350,000 compounds, about 6,000 (1.7%) were called active. Not shown: some 5% with an inconclusive outcome. This excerpt belongs to a sample that is enriched for actives.
Quantity name: CPE inhibition (%)
Numbers only here, please. The scale is %.

// worked examples, CPE inhibition included
[
  {
    "Mol": "C[C@@H]1CCCCO[C@@H](CN(C)Cc2ccc3c(c2)OCO3)[C@@H](C)CN([C@@H](C)CO)C(=O)c2cc(NC(=O)Nc3ccccc3)ccc2O1",
    "Measurement unit": "%",
    "CPE inhibition": -0.739
  },
  {
    "Mol": "C[C@H](CO)N1C[C@H](C)[C@H](CN(C)Cc2ccncc2)Oc2ccc(N(C)C)cc2C1=O",
    "Measurement unit": "%",
    "CPE inhibition": 24.8
  }
]

Reported CPE inhibition, molecule C[C@H]1CN([C@@H](C)CO)C(=O)c2cc(N(C)C)ccc2O[C@@H]1CN(C)Cc1ccccc1 : ____ 1.9

Entry to check: C[C@H](NC(=O)N(C)C[C@@H]1OCc2ccccc2-c2ccccc2C(=O)N([C@H](C)CO)C[C@@H]1C)c1ccccc1 3.49

Can you check Cc1noc(C)c1NC(=O)Nc1ccc2c(c1)C(=O)N([C@@H](C)CO)C[C@H](C)[C@H](CN(C)Cc1ccc(-c3ccccc3)cc1)O2 next? -1.16

Would you mind doing Cc1noc(C)c1NC(=O)Nc1ccc2c(c1)C(=O)N([C@H](C)CO)C[C@@H](C)[C@@H](CN(C)Cc1ccccc1)O2 as well? 33.6

Would you kindly repeat that for C[C@@H]1CN([C@@H](C)CO)C(=O)c2cc(/C=C/c3ccccc3)cnc2O[C@H]1CN(C)C(=O)Nc1ccc(C(F)(F)F)cc1 ? 22.8

###

Below: a set of entries, each annotated with reported CPE inhibition.
test: inhibitors of DENV2 cytopathic effect, primary screen, cell-based, plate reader, single concentration (AID 651640); conditions: DENV2-infected cells, cytopathic effect rescue, at 9.99 µM, active compounds read high;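 further: 0% = median of neutral control wells and 100% = median of positive control wells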
The whole screen tested about 350,000 compounds, of which about 6,000 (1.7%) were called active. Not shown: some 5% with an inconclusive outcome. This is one part of a sample in which actives are shown more often than they occur.
Numbers only; they are read as %.

[
  {
    "Mol": "C[C@H](CO)N1C[C@H](C)[C@H](CN(C)S(C)(=O)=O)Oc2ncc(C3=CCCC3)cc2C1=O",
    "Quantity name": "CPE inhibition",
    "Measurement unit": "%",
    "Recorded number": 32.1
  },
  {
    "Mol": "COc1ccccc1C(=O)NCCC(=O)NN1C(=O)NC2(CCCCC2)C1=O",
    "Quantity name": "CPE inhibition",
    "Measurement unit": "%",
    "Recorded number": 0.164
  },
  {
    "Mol": "C[C@H](CO)N1C[C@H](C)[C@@H](CN(C)Cc2ccccn2)Oc2ncc(C3=CCCC3)cc2C1=O",
    "Quantity name": "CPE inhibition",
    "Measurement unit": "%",
    "Recorded number": 49.6
  },
  {
    "Mol": "C[C@H](CO)N1C[C@H](C)[C@H](CN(C)Cc2cccnc2)Oc2ncc(C3=CCCC3)cc2C1=O",
    "Quantity name": "CPE inhibition",
    "Measurement unit": "%",
    "Recorded number": -1.52
  }
]

Look up CPE inhibition for this molecule: CCCN(C)C[C@@H]1Oc2ncc(-c3ccccc3F)cc2C(=O)N([C@@H](C)CO)C[C@@H]1C 38.8

Next molecule: CCCN(C)C[C@H]1Oc2ncc(-c3ccccc3OC)cc2C(=O)N([C@H](C)CO)C[C@@H]1C 14.5

// next record COc1ccccc1CNC(=O)CCCN1C(=O)NC2(CCCC2)C1=O 54.7

Same question, COc1ccccc1CCNC(=O)CN1C(=O)NC2(CCCC2)C1=O this time -7.14

Proceed to CC(C)NC(=O)N(C)C[C@@H]1Oc2ccc(NC(=O)Cn3cnnn3)cc2CC(=O)N([C@H](C)CO)C[C@H]1C -6.63

###

experiment: inhibitors of DENV2 cytopathic effect, primary screen, cell-based, plate reader, single concentration (AID 651640); details: DENV2-infected cells, cytopathic effect rescue, at 9.99 µM;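 further: 0% = median of neutral control wells and 100% = median of positive control wells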
The campaign covered roughly 350,000 compounds. About 6,000 (1.7%) were called active. Not shown: some 5% with an inconclusive outcome. Rule as the data show it: active = CPE inhibition above about 20% (passing the limit was not always enough); inconclusive = no clear call, values can overlap the other calls; tested in BHK-21 cells. For the sample, actives were picked, then their nearest neighbours and some compounds at random.
The categories you may choose from are True (active), False (inactive)

Use the examples below as a reference point.
[
  {
    "Mol": "CNC[C@@H]1Oc2cc(C#CC3(O)CCCC3)ccc2S(=O)(=O)N([C@@H](C)CO)C[C@H]1C",
    "Group": "False"
  },
  {
    "Mol": "CN1c2ccc(-c3cccc(C#N)c3)cc2[C@@H]2[C@@H](CCN2C(=O)C2CCC2)[C@@H]1CO",
    "Group": "False"
  },
  {
    "Mol": "COc1ccc(-c2cn(CC[C@@H]3CC[C@@H](NC(=O)CCN4CCCCC4)[C@@H](CO)O3)nn2)cc1",
    "Group": "False"
  },
  {
    "Mol": "CSc1ccc(Oc2cccc3c2S(=O)(=O)N([C@H](C)c2ccccc2)C[C@@H](COCc2ccccc2)O3)cc1C",
    "Group": "False"
  },
  {
    "Mol": "C[C@H](CO)N1C[C@H](C)[C@H](CN(C)Cc2ccncc2)Oc2cc(-c3cncnc3)ccc2S1(=O)=O",
    "Group": "False"
  }
]

What was the test verdict on O=C(Nc1cc(F)ccc1F)N1CCCCN2[C@H](C1)[C@H](c1ccc(-c3cccnc3)cc1)[C@@H]2CO ? False

Let us now turn to O=C(Nc1cccc(Cl)c1)N1C[C@@H]2[C@H](c3ccccc31)[C@H](CO)N2Cc1ccncc1 False

Try this compound next: CCCC(=O)Nc1ccc2c(c1)OC[C@H](C)N(C(=O)CC)C[C@H](C)[C@@H](OC)CN(C)C2=O True

Moving on to the next compound: CCC(=O)N(C)C[C@H]1Oc2cc(C#CCOC)ccc2S(=O)(=O)N([C@H](C)CO)C[C@H]1C True

And the next one, CCC(=O)N(C)C[C@@H]1Oc2cc(C#CCOC)ccc2S(=O)(=O)N([C@H](C)CO)C[C@H]1C ? False

Can you handle O=C(C[C@@H]1C[C@@H]2c3cc(NC(=O)NC4CCCC4)ccc3O[C@@H]2[C@H](CO)O1)NCC(F)(F)F next? False

Moving on to CO[C@H]1CN(C)C(=O)c2ccc(NC(=O)C3CC3)cc2OC[C@@H](C)N(C(=O)CN2CCOCC2)C[C@H]1C True

Also check CO[C@@H]1CN(C)C(=O)c2cc(NS(=O)(=O)c3ccccc3)ccc2OC[C@@H](C)N(C(=O)NC(C)C)C[C@@H]1C False

Ok, now COCC#Cc1cnc2c(c1)C(=O)N([C@@H](C)CO)C[C@@H](C)[C@H](CN(C)C(=O)C1CCOCC1)O2 False

And for CO[C@@H]1CN(C)C(=O)c2ccc(NS(=O)(=O)c3cn(C)cn3)cc2OC[C@H](C)N(CCC(F)(F)F)C[C@@H]1C ? False

###

experiment: inhibitors of DENV2 cytopathic effect, primary screen, cell-based, plate reader, single concentration (AID 651640); details: DENV2-infected cells, cytopathic effect rescue, at 9.99 µM, active compounds read high;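 further: 0% = median of neutral control wells and 100% = median of positive control wells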
Hit rate of the full screen: of about 350,000 compounds, about 6,000 (1.7%) were called active. Inconclusive results (about 5%) are left out. The sample holds actives, similar compounds and a random draw of the others, so the mix is not that of the screen.
The following molecules are listed with their measured CPE inhibition values.
Enter your answer as a number in %; do not include the unit.

Take a look at these entries with their results.
[
  {
    "Molecule": "COc1ccc(NC(=O)N[C@@H]2CC[C@H](CCn3cc(-c4ccc(OC)cc4)nn3)O[C@@H]2CO)cc1",
    "Measurement unit": "%",
    "CPE inhibition": 3.46
  },
  {
    "Molecule": "COc1ccc(NC(=O)Nc2ccc3c(c2)C(=O)N([C@@H](C)CO)C[C@H](C)[C@H](CN(C)S(=O)(=O)c2ccccc2)OCCCC[C@@H](C)O3)cc1",
    "Measurement unit": "%",
    "CPE inhibition": 0.841
  },
  {
    "Molecule": "Cc1ccc(S(=O)(=O)NCC[C@H]2CC[C@@H](NS(=O)(=O)c3ccccc3Cl)[C@H](CO)O2)cc1",
    "Measurement unit": "%",
    "CPE inhibition": -7.15
  },
  {
    "Molecule": "CCC(=O)N(C)C[C@@H]1Oc2cc(C#C[C@H](C)O)ccc2S(=O)(=O)N([C@@H](C)CO)C[C@H]1C",
    "Measurement unit": "%",
    "CPE inhibition": -5.73
  },
  {
    "Molecule": "C[C@H]1CN([C@@H](C)CO)C(=O)c2cc(NC(=O)C3CC3)ccc2O[C@@H]1CN(C)S(=O)(=O)c1cn(C)cn1",
    "Measurement unit": "%",
    "CPE inhibition": -4.92
  }
]

What measured CPE inhibition goes with CC(C)C#Cc1ccc2c(c1)O[C@@H](CN(C)Cc1ccncc1)[C@@H](C)CN([C@@H](C)CO)S2(=O)=O ? -4.86

What do you have for Cc1noc(C)c1NC(=O)N(C)C[C@H]1Oc2ccc(NS(=O)(=O)c3ccc(Cl)cc3)cc2CC(=O)N([C@H](C)CO)C[C@@H]1C ? -8.56

For C[C@H]1CN([C@@H](C)CO)C(=O)c2cccc(NC(=O)CCCCCC(=O)Nc3ccccc3N)c2O[C@@H]1CN(C)CC1CCCCC1 then? 1.77
